- Test system: TNF-α production
- measurement.notes: Human TNF-α production suppression test (LPS-stimulated peripheral blood mononuclear cells, ELISA)
- Type: cell-based
- experimental.parameters: PBMC, compound 10 μg/mL, 24 hr, control well = 100, read-out: TNF-α production suppressive rate (%)
Catalogue of inhibition at 10 µg/mL readings, one per entry.
metric.name: inhibition at 10 µg/mL (%)

compound	reported.measurement
Cc1cscc1-c1cn(C2CCC(=O)NC2=O)nn1 (stereo not shown)	73
O=C1CCC(n2cc(-c3cscc3OC3CCCC3)nn2)C(=O)N1 (stereo not shown)	39
COc1sccc1-c1cn(C2CCC(=O)NC2=O)nn1 (stereo not shown)	100
O=C1CCC(n2cc(-c3cc(Br)sc3Br)nn2)C(=O)N1 (stereo not shown)	35
O=C1CCC(n2cc(-c3cscc3OCC3CCCCC3)nn2)C(=O)N1 (stereo not shown)	79
Cl.O=C1CCC(n2cc(-c3cscc3OCc3ccc(CN4CCCC4)cc3)nn2)C(=O)N1 (stereo not shown) [compound 41, hydrochloride]	93
Cc1cc(-c2cn(C3CCC(=O)NC3=O)nn2)cs1 (stereo not shown)	67
O=C1CCC(n2cc(-c3cscc3OCC3CC3)nn2)C(=O)N1 (stereo not shown)	37
O=C1CCC(n2cc(-c3cscc3OCc3cccc(CN4CCOCC4)c3)nn2)C(=O)N1 (stereo not shown)	81
COCc1ccc(COc2cscc2-c2cn(C3CCC(=O)NC3=O)nn2)cc1 (stereo not shown)	81
O=C1CCC(n2cc(-c3scc4c3OCCO4)nn2)C(=O)N1 (stereo not shown)	50
CCCOc1cscc1-c1cn(C2CCC(=O)NC2=O)nn1 (stereo not shown)	30
Cc1ccc(-c2cn(C3CCC(=O)NC3=O)nn2)s1 (stereo not shown)	71
O=C1CCC(n2cc(-c3cscc3OCc3ccc(Cl)cc3)nn2)C(=O)N1 (stereo not shown)	87
O=C1CCC(n2cc(-c3cscc3OCc3cc4ccccc4s3)nn2)C(=O)N1 (stereo not shown)	63
O=C1CCC(n2cc(-c3cscc3OCc3ccc(CN4CCOCC4)cc3)nn2)C(=O)N1 (stereo not shown)	98
CC(C)Oc1cscc1-c1cn(C2CCC(=O)NC2=O)nn1 (stereo not shown)	83
COC(=O)c1scc(-c2cn(C3CCC(=O)NC3=O)nn2)c1OC (stereo not shown)	100
COc1cscc1-c1nnn(C2CCC(=O)NC2=O)c1I (stereo not shown)	79

---

- Test system: REC-1 cells
- measurement.notes: Human mantle cell lymphoma cell line REC-1 proliferation suppression test
- Format: cell-based
- experimental.parameters: Rec1, 72 h, compound 10 μM, 3 days, WST-8, read-out: cell survival rate (% of control) REC-1

compound	test.system	uom	viability at 10 µM
O=C1CCC(N2C(=O)c3ccccc3C2=O)C(=O)N1 (stereo not drawn) [Thalidomide, reference compound]	REC-1 cells	%	94
COc1cscc1-c1cn(C2CCC(=O)NC2=O)nn1 (stereo not drawn) [compound 19]	REC-1 cells	%	4
COc1cc(-c2cn(C3CCC(=O)NC3=O)nn2)cs1 (stereo not drawn) [compound 20]	REC-1 cells	%	22

---

- System: REC-1 cells
- measurement.notes: Human mantle cell lymphoma cell line REC-1 proliferation suppression test
- Assay type: cell-based
- experimental.parameters: Rec1, 72 h, compound 10 μM, 3 days, WST-8, read-out: cell survival rate (% of control) REC-1
- Description: Example 53: Human Mantle Cell Lymphoma Cell Line REC-1 Proliferation Suppression Test REC-1 cells (ATCC, CRL-3004) were suspended in medium B, and diluted as appropriate with 0.4% trypan blue solution (Sigma-Aldrich Co. LLC.). The number of viable cells was counted with a hemocytometer (Funakoshi Co., Ltd.). […] After culturing at 37° C. in a 5% CO2 stream for 3 days, the cell proliferation activity was measured according to the instruction manual attached to WST-8 Kit (KISHIDA CHEMICAL Co., Ltd.).

compound	viability at 10 µM [%]
O=C1CCC(n2cc(-c3cscc3OCc3cccnc3)nn2)C(=O)N1 (stereo not shown)	39
CC(C)Oc1cscc1-c1cn(C2CCC(=O)NC2=O)nn1 (stereo not shown)	23
COCc1ccc(COc2cscc2-c2cn(C3CCC(=O)NC3=O)nn2)cc1 (stereo not shown)	17
COc1cscc1-c1nnn(C2CCC(=O)NC2=O)c1I (stereo not shown)	24
O=C1CCC(n2cc(-c3cscc3OCc3ccccn3)nn2)C(=O)N1 (stereo not shown)	33
CCCOc1cscc1-c1cn(C2CCC(=O)NC2=O)nn1 (stereo not shown)	63
O=C1CCC(n2cc(-c3ccsc3)nn2)C(=O)N1 (stereo not shown)	36
O=C1CCC(n2cc(-c3cscc3OC3CCCC3)nn2)C(=O)N1 (stereo not shown)	80
O=C1CCC(n2cc(-c3cscc3Cl)nn2)C(=O)N1 (stereo not shown)	34
O=C1CCC(n2cc(-c3cc(Br)sc3Br)nn2)C(=O)N1 (stereo not shown)	100
O=C1CCC(n2cc(-c3cscc3OCc3ccc(CN4CCOCC4)cc3)nn2)C(=O)N1 (stereo not shown)	2
Cl.O=C1CCC(n2cc(-c3cscc3OCc3ccc(CN4CCCCC4)cc3)nn2)C(=O)N1 (stereo not shown) [compound 42, hydrochloride]	13
C[C@@H]1CN(Cc2ccc(COc3cscc3-c3cn(C4CCC(=O)NC4=O)nn3)cc2)C[C@H](C)O1 (stereo partly shown)	5
CC(=O)c1ccc(-c2cn(C3CCC(=O)NC3=O)nn2)s1 (stereo not shown)	99
COc1c(-c2cn(C3CCC(=O)NC3=O)nn2)csc1Cl (stereo not shown)	65
Cc1cc(-c2cn(C3CCC(=O)NC3=O)nn2)cs1 (stereo not shown)	52
Cc1ccc(-c2cn(C3CCC(=O)NC3=O)nn2)s1 (stereo not shown)	53
O=C1CCC(n2cc(-c3cscc3OCc3cccc(CN4CCOCC4)c3)nn2)C(=O)N1 (stereo not shown)	24
O=C1CCC(n2cc(-c3cscc3OCC3CC3)nn2)C(=O)N1 (stereo not shown)	58
O=C1CCC(n2cc(-c3csc(CO)c3)nn2)C(=O)N1 (stereo not shown)	70
CCOc1cc(-c2cn(C3CCC(=O)NC3=O)nn2)cs1 (stereo not shown)	46
COc1c(-c2cn(C3CCC(=O)NC3=O)nn2)csc1C (stereo not shown)	36
Cl.O=C1CCC(n2cc(-c3cscc3OCc3ccc(CCN4CCOCC4)cc3)nn2)C(=O)N1 (stereo not shown) [compound 45, hydrochloride]	26
O=C1CCC(n2nnc(-c3ccsc3)c2Cl)C(=O)N1 (stereo not shown)	93
COC(=O)c1scc(-c2cn(C3CCC(=O)NC3=O)nn2)c1OC (stereo not shown)	85
O=C1CCC(n2cc(-c3cscc3OCC3CCCC3)nn2)C(=O)N1 (stereo not shown)	86
CN(C)Cc1ccc(COc2cscc2-c2cn(C3CCC(=O)NC3=O)nn2)cc1.Cl (stereo not shown) [compound 46, hydrochloride]	23
O=C1CCC(n2cc(-c3scc4c3OCCO4)nn2)C(=O)N1 (stereo not shown)	57
CC(Oc1cscc1-c1cn(C2CCC(=O)NC2=O)nn1)c1ccccc1 (stereo not shown)	30
O=C1CCC(n2nnc(-c3ccsc3)c2Br)C(=O)N1 (stereo not shown)	98
O=C1CCC(n2cc(-c3ccc(Cl)s3)nn2)C(=O)N1 (stereo not shown)	56
O=C1CCC(n2cc(-c3cscc3OCc3ccccc3)nn2)C(=O)N1 (stereo not shown)	15
O=C1CCC(n2cc(-c3cscc3OCC3CCCCC3)nn2)C(=O)N1 (stereo not shown)	49
CCCCOc1cscc1-c1cn(C2CCC(=O)NC2=O)nn1 (stereo not shown)	57
O=C1CCC(n2cc(-c3ccc(Br)s3)nn2)C(=O)N1 (stereo not shown)	77
Cc1cscc1-c1cn(C2CCC(=O)NC2=O)nn1 (stereo not shown)	44
O=C1CCC(n2cc(-c3cscc3OCc3ccccc3CN3CCOCC3)nn2)C(=O)N1 (stereo not shown)	33

Ref: patent US11299485B2
